# measuredOn: dysferlin C2A domain (dysf C2A) (Homo sapiens, UniProt O75923)
# Sequence (O75923 1-129): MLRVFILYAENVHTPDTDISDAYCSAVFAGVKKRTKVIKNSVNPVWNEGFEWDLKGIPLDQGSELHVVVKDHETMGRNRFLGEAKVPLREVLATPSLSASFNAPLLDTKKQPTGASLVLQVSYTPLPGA
# measurementDescription: […]-TROSY NMR titration, single-site fast-exchange fit
pKd: −log10 of the molar value.
testReadout: pKd

Kindly state the measured pKd obtained for "O=P(O)(O)O[C@@H]1[C@H](O)[C@H](O)[C@@H](OP(=O)(O)O)[C@H](OP(=O)(O)O)[C@H]1O" with dysferlin C2A domain (dysf C2A) (Homo sapiens, UniProt O75923). 4.82 to 4.92

Just for reference, paper PMC10699586 is where these values come from.
